assay_explanation: In-vivo pharmacokinetic parameters in mice
Set-up: species or system Balb-c mice
condition_info: male, Balb-c, mouse, plasma, PO, 5 mg/kg
reported_metric: half-life (h)

mol: COc1cc(F)cc([C@@H](CO)NC(=O)[C@@H](C)N2Cc3ccc(-c4nc(NC5CCOCC5)ncc4F)c(F)c3C2=O)c1
half-life (h): 1.1

mol: Cc1cccc([C@@H](CO)NC(=O)[C@@H](C)N2Cc3ccc(-c4nc(NC5CCOCC5)ncc4Cl)c(F)c3C2=O)c1
half-life (h): 1.7

mol: C[C@H](C(=O)N[C@H](CO)c1cccc(Cl)c1)N1Cc2ccc(-c3nc(NC4CCOCC4)ncc3F)c(F)c2C1=O
half-life (h): 1.1

mol: Cc1cccc([C@@H](CO)NC(=O)[C@@H](C)N2Cc3ccc(-c4nc(NC5CCOCC5)ncc4F)c(F)c3C2=O)c1
half-life (h): 1.5

mol: COc1cc(F)cc([C@@H](CO)NC(=O)[C@@H](C)N2Cc3ccc(-c4nc(NC5CCOCC5)ncc4Cl)c(F)c3C2=O)c1
half-life (h): 1.5

---

assay_explanation: In-vivo pharmacokinetic parameters in SD rats
condition_info: male, rat, plasma, 1 mg/kg, IV, 1 mpk, read-out: Vss
reported_metric: Vd (L/kg)

mol: COc1cc(F)cc([C@@H](CO)NC(=O)[C@@H](C)N2Cc3ccc(-c4nc(NC5CCOCC5)ncc4F)c(F)c3C2=O)c1
Vd / L/kg: 0.9

mol: C[C@H](C(=O)N[C@H](CO)c1cccc(Cl)c1)N1Cc2ccc(-c3nc(NC4CCOCC4)ncc3F)c(F)c2C1=O
Vd / L/kg: 0.8

---

System: Colo-205 cells
assay_explanation: Colo-205 tumor cell proliferation, CCK-8, 72 hours
Format: cell-based
condition_info: 72 hours, CCK-8; numeric values; read-out: Colo-205 IC50
pIC50: −log10 of the molar value.
reported_metric: pIC50

compound: Cc1cccc([C@@H](CO)NC(=O)[C@@H](C)N2Cc3ccc(-c4nc(Nc5ccnn5C)ncc4Cl)c(F)c3C2=O)c1 [Embodiment 32]
pIC50: 7.01

compound: Cc1cccc([C@@H](CO)NC(=O)[C@@H](C)N2Cc3ccc(-c4nc(NC5CCOCC5)ncc4F)c(F)c3C2=O)c1 [Embodiment 31]
pIC50: 7.76

(1) COc1cc(F)cc([C@@H](CO)NC(=O)[C@@H](C)N2Cc3ccc(-c4nc(NC5CCOCC5)ncc4Cl)c(F)c3C2=O)c1 [Embodiment 33]
(2) C[C@H](C(=O)N[C@H](CO)c1cccc(Cl)c1)N1Cc2ccc(-c3ccnc(Nc4ccnn4C)c3)cc2C1=O [compound 2, reference compound]
(3) C[C@H](C(=O)N[C@H](CO)c1cccc(Cl)c1)N1Cc2ccc(-c3nc(NC4CCOCC4)ncc3Cl)c(F)c2C1=O [Embodiment 34]
(4) C[C@H](C(=O)N[C@H](CO)c1cccc(Cl)c1)N1Cc2ccc(-c3nc(NC4CCOCC4)ncc3F)c(F)c2C1=O [Embodiment 37]
# rank by pIC50, ascending (min first) # answer = labels listed in requested order
2, 3, 1, 4

---

assay_explanation: In-vivo pharmacokinetic parameters in mice
Parameters: species or system Balb-c mice
condition_info: male, Balb-c, mouse, plasma, PO, 5 mg/kg
reported_metric: Cmax (nM)

mol: Cc1cccc([C@@H](CO)NC(=O)[C@@H](C)N2Cc3ccc(-c4nc(NC5CCOCC5)ncc4Cl)c(F)c3C2=O)c1
Cmax (nM): 955
//
mol: COc1cc(F)cc([C@@H](CO)NC(=O)[C@@H](C)N2Cc3ccc(-c4nc(NC5CCOCC5)ncc4F)c(F)c3C2=O)c1
Cmax (nM): 1200
//
mol: COc1cc(F)cc([C@@H](CO)NC(=O)[C@@H](C)N2Cc3ccc(-c4nc(NC5CCOCC5)ncc4Cl)nc3C2=O)c1
Cmax (nM): 289
//
mol: Cc1cccc([C@@H](CO)NC(=O)[C@@H](C)N2Cc3ccc(-c4nc(Nc5ccnn5C)ncc4Cl)c(F)c3C2=O)c1
Cmax (nM): 357

(a) C[C@H](C(=O)N[C@H](CO)c1cccc(Cl)c1)N1Cc2ccc(-c3nc(NC4CCOCC4)ncc3F)c(F)c2C1=O
(b) Cc1cccc([C@@H](CO)NC(=O)[C@@H](C)N2Cc3ccc(-c4nc(NC5CCOCC5)ncc4F)c(F)c3C2=O)c1
Returns: the label, a or b , whose recorded Cmax is the lower number. Kindly give the label for the entry you pick.
b
(b: 1170 nM, a: 1680 nM)

(A) C[C@H](C(=O)N[C@H](CO)c1cccc(Cl)c1)N1Cc2ccc(-c3nc(NC4CCOCC4)ncc3Cl)c(F)c2C1=O
(B) COc1cc(F)cc([C@@H](CO)NC(=O)[C@@H](C)N2Cc3ccc(-c4nc(NC5CCOCC5)ncc4Cl)c(F)c3C2=O)c1
Returns: the label, A or B , whose recorded Cmax is the lower number. Kindly give the label for the entry you pick.
B
(B: 441 nM, A: 791 nM)
